# target desc: Neurogenic locus notch homolog protein 3 (Homo sapiens)
# procedure text: NOTCH3 binders on small-molecule microarray, primary screen, biochemical, 635/667 nm fluorescence (AID 1096)
# assay conditions: NOTCH3 binding, 635 nm fluorescence, higher = more signal
value type: composite z-score
// print number alone

[
  {
    "molecule": "COc1ccc(C(O)C2C=CC3C(=O)N(c4ccccc4)C(=O)C3N2Nc2ccc(C#N)cc2)c2ccccc12 (stereo not drawn)",
    "quantitative result": 1.08
  }
]

Turning now to a further molecule:
Bench note: what composite z-score did CC(C)(C)OC(=O)CC[C@]1(C(=O)O)N=C(c2ccc(OCCCO)cc2)O[C@H]1c1ccccc1 show?
0.154

---

# procedure text: MM1S cell viability effects, profiling panel, calcein-AM fluorescence, 48 h, basal (AID 1165);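 also: viability of MM1S multiple myeloma cells under basal unstimulated conditions; test concentration not given here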
# assay conditions: higher = more signal
Label label 1 when z-score is at or above -0.3; otherwise label label 0.

Solved cases (5 shown):
[
  {
    "compound": "O=C(O)[C@H](Cc1ccccc1)n1cc(-c2ccccn2)nn1",
    "answer label": "label 1"
  },
  {
    "compound": "CC(=O)NCCCC[C@@H]1NC(=O)[C@@H]2C[C@H](C(=O)O)[C@H](c3ccc(O)cc3)N2C1=O",
    "answer label": "label 1"
  },
  {
    "compound": "C=CCC(OC(C)=O)[C@@H]1[C@@H](N(Cc2cc3ccccc3o2)C(=O)Cc2ccc(F)cc2)c2cc(OCCCO)ccc2N1C(=O)c1ccc2ccccc2n1 (stereo not given in full)",
    "answer label": "label 1"
  },
  {
    "compound": "CCOC(=O)C1=CC[C@@H](c2ccc([N+](=O)[O-])cc2)N(S(=O)(=O)c2ccc(C)cc2)[C@H]1c1ccccc1",
    "answer label": "label 0"
  },
  {
    "compound": "C=C(C(=O)CC[C@H](OC(=O)c1cccnc1)c1ccc(CO)o1)C(C)C",
    "answer label": "label 0"
  }
]

Now take the following compound into account.
Is it the case that COc1ccc(NN2C(C(O)c3ccco3)C=CC3C(=O)N(C4CCCCC4)C(=O)C32)cc1 (stereo not given) has z-score reaching or exceeding -0.3?
label 1

---

# procedure text: P. aeruginosa biofilm formation inhibitors, primary screen, PAO1 strain, BacTiter-Glo luminescence, LB-PBS (AID 1144)
# assay conditions: 12 h, higher = more signal
value type: z-score
// print number alone

Check out these entries, answers already filled in.
[
  {
    "molecule": "COc1ccc([Si](C)(C)[C@@H]2[C@@H](CC(=O)N3CCC[C@H]3CO)O[C@]3(C(=O)N(Cc4ccc(N5C(=O)c6cccc7cccc5c67)cc4)c4ccccc43)[C@H]2C)cc1",
    "z-score": -0.489
  },
  {
    "molecule": "COCCOC(=O)N1C(=O)[C@@]2(c3cc(C#CCC(C(=O)OC)C(=O)OC)ccc31)[C@H](c1ccc(OCCO)cc1)N1[C@H](c3ccccc3)[C@H](c3ccccc3)OC(=O)[C@H]1[C@@H]2C(=O)N1CCN(c2ncccn2)CC1",
    "z-score": -1.65
  },
  {
    "molecule": "O=C1O[C@@H](c2ccccc2)[C@@H](c2ccccc2)N2[C@@H](c3ccc(O)cc3)[C@]3(C(=O)Nc4ccccc43)[C@@H](C(=O)Nc3nc4ccccc4s3)[C@H]12",
    "z-score": -1.87
  },
  {
    "molecule": "O=C1O[C@@H](c2ccccc2)[C@@H](c2ccccc2)N2[C@@H](c3ccccc3OCCO)[C@]3(C(=O)Nc4ccccc43)[C@@H](C(=O)NC[C@H](O)c3ccccc3)[C@H]12",
    "z-score": -0.668
  },
  {
    "molecule": "O=C1NC(=O)C2C1C=CC(C(O)c1ccc3c(c1)OCO3)N2Nc1ccccn1 (configuration not stated)",
    "z-score": -1.72
  },
  {
    "molecule": "Cc1ccc(F)cc1S(=O)(=O)N[C@@H]1CCN(Cc2ccc(Oc3ccccc3)cc2)C1",
    "z-score": 0.913
  }
]

Turning now to a further molecule:
Bench note: what z-score did COC(=O)C1(Cc2ccccc2)C=C2C(=C(c3ccccc3)C(=O)C2C)CN1 (configuration not stated) show?
0.125

---

# target desc: Epidermal growth factor receptor (Homo sapiens)
# procedure text: EGFR binders on small-molecule microarrays, primary screen, biochemical, small-molecule microarray, 635 nm fluorescence (AID 1104);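 also: score merges 667 nm emission intensity with spot signal to noise over triplicate slides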
# assay conditions: EGFR binding, higher = more signal
Parameter composite z-score: see the listing below.
// print number alone

Check out these entries, answers already filled in.
[
  {
    "molecule": "COc1cc(OC)c(C(O)C2C=CC3C(=O)N(c4ccccc4)C(=O)C3N2Nc2ccc(C#N)cc2)cc1Br (centres undefined)",
    "target desc": "Epidermal growth factor receptor (Homo sapiens)",
    "quantitative result": 0.763
  },
  {
    "molecule": "O=C1c2ccccc2[C@](Cc2ccccc2I)(C(=O)NCc2ccccc2)[C@H](c2ccc(CO)cc2)N1C1CCCCC1",
    "target desc": "Epidermal growth factor receptor (Homo sapiens)",
    "quantitative result": 0.228
  },
  {
    "molecule": "C=CCC(OC(C)=O)[C@@H]1[C@@H](N(Cc2cc3ccccc3o2)C(=O)c2ccc(C)cc2)c2cc(OCCCO)ccc2N1C(=O)Cc1ccc2ccccc2c1 (some centres undefined)",
    "target desc": "Epidermal growth factor receptor (Homo sapiens)",
    "quantitative result": -0.0197
  }
]

Turning now to a further molecule:
Request - read-out composite z-score | tested on Epidermal growth factor receptor (Homo sapiens) | molecule O=C(N1CCCCC1)[C@@]1(Cc2ccccc2)COC(c2ccc(OCCCO)cc2)=N1
-0.153

---

# procedure text: HepG2 liver cancer cell viability effects, profiling panel, resazurin fluorescence, 24 h, PK04 Diversity Set (AID 1172); also: test concentration not given here
# assay conditions: higher = more signal
Parameter z-score: see the listing below.
// print number alone

[
  {
    "smiles code": "COc1ccc(C#Cc2ccc3c(c2)[C@]2(C(=O)N3)[C@H](C(=O)N3CCc4cc(OC)c(OC)cc4C3)[C@H]3C(=O)O[C@H](c4ccccc4)[C@H](c4ccccc4)N3[C@@H]2c2ccc(O)cc2)cc1",
    "value type": "z-score",
    "quantitative result": -0.235
  },
  {
    "smiles code": "COC(=O)[C@]1(CCS(=O)(=O)c2ccccc2)N=C(c2ccc(OCCCO)cc2)O[C@@H]1c1ccccc1CN=[N+]=[N-]",
    "value type": "z-score",
    "quantitative result": -1.71
  },
  {
    "smiles code": "CN(C)CCCN1C(=O)[C@@]2(c3ccc([N+](=O)[O-])cc3)CC(=O)N(CC34CC5CC(CC(C5)C3)C4)[C@@H]2c2ccc(CO)cc21",
    "value type": "z-score",
    "quantitative result": -0.349
  },
  {
    "smiles code": "NCCCCCCNC(=O)[C@H]1C[C@H]2C(=O)N[C@@H](Cc3ccccc3)C(=O)N2[C@H]1c1ccc(O)cc1",
    "value type": "z-score",
    "quantitative result": 0.614
  },
  {
    "smiles code": "COC(=O)[C@@]1(Cc2ccccc2)[C@H]2c3cc(C(=O)N4CCCC4)n(Cc4cc(F)cc5c4OCOC5)c3C[C@H]2CN1C(=O)c1ccccc1",
    "value type": "z-score",
    "quantitative result": -0.0185
  }
]

Bench note: what z-score did C=CC[C@@]1(C(=O)N2CCCCC2)N=C(c2ccc(OCCCO)cc2)O[C@@H]1c1ccccc1 show?
1.63

Bench note: what z-score did CCOC(=O)C[C@H]1[C@H](OC(=O)Cc2ccc3c(c2)OCO3)[C@@H](NC(=O)Cc2ccc(OC)cc2)c2cc(OCCCO)ccc2N1C(=O)c1ccccc1 show?
-0.174

---

# procedure text: basal 3T3-L1 adipocyte mitochondrial potential changes, profiling panel, cell-based, JC-1 fluorescence, 3T3-L1 adipocytes, 24 h, 100 nL compound (AID 1168); also: test concentration not given here
# assay conditions: JC-1 mitochondrial fluorescence, higher = more signal, called active from +8 up or from −8 down
value type: z-score
// print number alone

Check out these entries, answers already filled in.
[
  {
    "compound": "O=C(O)[C@]1(Cc2ccccc2)N=C(c2ccc(OCCCO)cc2)O[C@@H]1c1ccccc1",
    "value type": "z-score",
    "quantitative result": 0.766
  },
  {
    "compound": "COc1ccc(NN2C(C(O)c3ccccn3)C=CC3C(=O)N(C4CCCCC4)C(=O)C32)cc1 (stereo not given)",
    "value type": "z-score",
    "quantitative result": -0.089
  }
]

Bench note: what z-score did CCN(CC)c1ccc(N2CC=CC34O[C@@H]5/C=C\CCC(C)OC(=O)C5[C@H]3C(=O)N(CCO)[C@@H]4C2=O)cc1 (stereo not given in full) show?
-0.905

Bench note: what z-score did CC(C)c1ccc(NN2C(C(O)c3ccco3)C=CC3C(=O)N(c4ccccc4)C(=O)C32)cc1 (stereo not given) show?
-0.473

Bench note: what z-score did COC(=O)C1(Cc2ccccc2)C=C2C(=C(C(C)C)C(=O)C2C)CN1 (stereo not given) show?
-1.76
